B1: ESRRG (parent)
chain: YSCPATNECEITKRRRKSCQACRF

Variants of: B1
Assay: protein stability index of a GFP-peptide fusion (GPS, HEK-293T) (PSI 1-6); higher = more stable;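 also: lentivirally expressed fusions sorted by FACS into six bins by GFP to DsRed ratio, PSI derived from sequencing read proportions per bin multiplied by bin number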
Conditions: c terminus: a fixed tail appended
# protein stability index per record follows
Lab note: write the figure by itself, no unit.

Recorded results for 3 variants are shown here.
[
  {
    "mut": "E8T",
    "protein stability index": 3.25
  },
  {
    "mut": "I11G",
    "protein stability index": 3.47
  },
  {
    "mut": "C22I",
    "protein stability index": 3.42
  }
]

With those in mind, consider the next variant.
stdin: Any idea what its protein stability index is? The variant is E8M
stdout: 2.88
